Every entry's value here was drawn from ChEMBL document CHEMBL6114997.

Listed here: items and their measured IC50.
# Tested on: MCF7
# TEST PROTOCOL: Antiproliferative activity against human MCF7 cells assessed as inhibition of cell growth by MTT assay
# Format: functional, cell-based
MEASURED METRIC: IC50 (µM)

{"columns": ["SMILES CODE", "READING UNIT", "CENSOR SYMBOL", "TEST RESULT"],
 "data": [
  ["COc1cc(/C=C/C(=O)C(=Cc2cccs2)C(=O)/C=C/c2ccc(OCCCCO[N+](=O)[O-])c(OC)c2)ccc1OCCCCO[N+](=O)[O-]", "µM", "=", 18.4],
  ["COc1cc(/C=C/C(=O)C(=Cc2cccs2)C(=O)/C=C/c2ccc(OCCO[N+](=O)[O-])c(OC)c2)ccc1OCCO[N+](=O)[O-]", "µM", "=", 1.39],
  ["COc1cc(/C=C/c2cc(/C=C/c3ccc(OCCO[N+](=O)[O-])c(OC)c3)n(-c3ccc(C(F)(F)F)cc3)n2)ccc1OCCO[N+](=O)[O-]", "µM", ">", 50],
  ["COc1cc(/C=C/c2cc(/C=C/c3ccc(OCCCCO[N+](=O)[O-])c(OC)c3)n(Cc3ccccc3)n2)ccc1OCCCCO[N+](=O)[O-]", "µM", ">", 50],
  ["COc1cc(/C=C/C(=O)C(=Cc2ccco2)C(=O)/C=C/c2ccc(OCCCCO[N+](=O)[O-])c(OC)c2)ccc1OCCCCO[N+](=O)[O-]", "µM", "=", 11.3],
  ["COc1cc(/C=C/c2cc(/C=C/c3ccc(OCCO[N+](=O)[O-])c(OC)c3)n(Cc3ccccc3)n2)ccc1OCCO[N+](=O)[O-]", "µM", ">", 50]
]}

###

# Test system: A549
# TEST PROTOCOL: Antiproliferative activity against human A549 cells assessed as inhibition of cell growth by MTT assay
# Assay type: functional, cell-based
MEASURED METRIC: IC50

{"columns": ["SMILES CODE", "TEST RESULT"],
 "data": [
  ["COc1cc(/C=C/c2cc(/C=C/c3ccc(OCCCO[N+](=O)[O-])c(OC)c3)n(-c3ccccc3)n2)ccc1OCCCO[N+](=O)[O-]", "> 50 µM"],
  ["COc1cc(/C=C/c2cc(/C=C/c3ccc(OCCCCO[N+](=O)[O-])c(OC)c3)n(-c3ccc(C(F)(F)F)cc3)n2)ccc1OCCCCO[N+](=O)[O-]", "> 50 µM"],
  ["COc1cc(/C=C/C(=O)CC(=O)/C=C/c2ccc(O)c(OC)c2)ccc1O", "24.6 µM"],
  ["COc1cc(/C=C/c2cc(/C=C/c3ccc(OCCCO[N+](=O)[O-])c(OC)c3)n(-c3ccccn3)n2)ccc1OCCCO[N+](=O)[O-]", "> 50 µM"]
]}

###

# System: A549
# TEST PROTOCOL: Antiproliferative activity against human A549 cells assessed as inhibition of cell growth by MTT assay
# Type: functional, cell-based

{"columns": ["SMILES CODE", "IC50"],
 "data": [
  ["COc1cc(/C=C/c2cc(/C=C/c3ccc(OCCCCO[N+](=O)[O-])c(OC)c3)n(-c3ccccn3)n2)ccc1OCCCCO[N+](=O)[O-]", "> 50 µM"],
  ["COc1cc(/C=C/C(=O)C(=Cc2cccs2)C(=O)/C=C/c2ccc(OCCCO[N+](=O)[O-])c(OC)c2)ccc1OCCCO[N+](=O)[O-]", "1.27 µM"],
  ["COc1cc(/C=C/c2cc(/C=C/c3ccc(OCC4CC4)c(OC)c3)n(-c3ccc(C(=O)OCCCCO[N+](=O)[O-])cc3)n2)ccc1OCC1CC1", "> 50 µM"],
  ["COc1cc(/C=C/c2cc(/C=C/c3ccc(OCCO[N+](=O)[O-])c(OC)c3)n(Cc3ccccc3)n2)ccc1OCCO[N+](=O)[O-]", "> 50 µM"],
  ["COc1cc(/C=C/C(=O)C(=Cc2ccco2)C(=O)/C=C/c2ccc(OCCCO[N+](=O)[O-])c(OC)c2)ccc1OCCCO[N+](=O)[O-]", "2.06 µM"],
  ["COc1cc(/C=C/c2cc(/C=C/c3ccc(OCCO[N+](=O)[O-])c(OC)c3)n(-c3ccccc3)n2)ccc1OCCO[N+](=O)[O-]", "> 50 µM"],
  ["COc1cc(/C=C/C(=O)C(=Cc2ccco2)C(=O)/C=C/c2ccc(OCCO[N+](=O)[O-])c(OC)c2)ccc1OCCO[N+](=O)[O-]", "0.8 µM"],
  ["COc1cc(/C=C/c2cc(/C=C/c3ccc(OCCCCO[N+](=O)[O-])c(OC)c3)n(-c3ccccc3F)n2)ccc1OCCCCO[N+](=O)[O-]", "> 50 µM"],
  ["COc1cc(/C=C/c2cc(/C=C/c3ccc(OCCO[N+](=O)[O-])c(OC)c3)n(-c3ccc(C(F)(F)F)cc3)n2)ccc1OCCO[N+](=O)[O-]", "> 50 µM"],
  ["COc1cc(/C=C/c2cc(/C=C/c3ccc(OCCCCO[N+](=O)[O-])c(OC)c3)n(-c3ccccc3)n2)ccc1OCCCCO[N+](=O)[O-]", "> 50 µM"],
  ["COc1cc(/C=C/C(=O)C(=Cc2cccs2)C(=O)/C=C/c2ccc(OCCCCO[N+](=O)[O-])c(OC)c2)ccc1OCCCCO[N+](=O)[O-]", "7.24 µM"],
  ["COc1cc(/C=C/C(=O)C(=Cc2ccco2)C(=O)/C=C/c2ccc(OCCCCO[N+](=O)[O-])c(OC)c2)ccc1OCCCCO[N+](=O)[O-]", "2.91 µM"],
  ["COc1cc(/C=C/c2cc(/C=C/c3ccc(OCCCO[N+](=O)[O-])c(OC)c3)n(-c3ccccc3F)n2)ccc1OCCCO[N+](=O)[O-]", "> 50 µM"],
  ["COc1cc(/C=C/c2cc(/C=C/c3ccc(OCCCCO[N+](=O)[O-])c(OC)c3)n(Cc3ccccc3)n2)ccc1OCCCCO[N+](=O)[O-]", "> 50 µM"],
  ["COc1cc(/C=C/C(=O)C(=Cc2cccs2)C(=O)/C=C/c2ccc(OCCO[N+](=O)[O-])c(OC)c2)ccc1OCCO[N+](=O)[O-]", "1.03 µM"],
  ["COc1cc(/C=C/c2cc(/C=C/c3ccc(OCCCO[N+](=O)[O-])c(OC)c3)n(-c3ccc(C(F)(F)F)cc3)n2)ccc1OCCCO[N+](=O)[O-]", "> 50 µM"],
  ["COc1cc(/C=C/c2cc(/C=C/c3ccc(OCCO[N+](=O)[O-])c(OC)c3)n(-c3ccc(F)cc3)n2)ccc1OCCO[N+](=O)[O-]", "> 50 µM"],
  ["COc1cc(/C=C/c2cc(/C=C/c3ccc(OCCCCO[N+](=O)[O-])c(OC)c3)n(-c3ccc(F)cc3)n2)ccc1OCCCCO[N+](=O)[O-]", "> 50 µM"],
  ["COc1cc(/C=C/c2cc(/C=C/c3ccc(OCC4CC4)c(OC)c3)n(-c3ccc(C(=O)OCCCO[N+](=O)[O-])cc3)n2)ccc1OCC1CC1", "> 50 µM"],
  ["COc1cc(/C=C/c2cc(/C=C/c3ccc(OCCCO[N+](=O)[O-])c(OC)c3)n(-c3ccc(F)cc3)n2)ccc1OCCCO[N+](=O)[O-]", "> 50 µM"],
  ["COc1cc(/C=C/c2cc(/C=C/c3ccc(OCCO[N+](=O)[O-])c(OC)c3)n(-c3ccccc3F)n2)ccc1OCCO[N+](=O)[O-]", "> 50 µM"],
  ["COc1cc(/C=C/c2cc(/C=C/c3ccc(OCCCO[N+](=O)[O-])c(OC)c3)n(Cc3ccccc3)n2)ccc1OCCCO[N+](=O)[O-]", "> 50 µM"]
]}

###

# Test system: MCF7
# TEST PROTOCOL: Antiproliferative activity against human MCF7 cells assessed as inhibition of cell growth by MTT assay
# Type: functional, cell-based

{"columns": ["SMILES CODE", "IC50"],
 "data": [
  ["COc1cc(/C=C/c2cc(/C=C/c3ccc(OCCO[N+](=O)[O-])c(OC)c3)n(-c3ccc(F)cc3)n2)ccc1OCCO[N+](=O)[O-]", "> 50 µM"],
  ["COc1cc(/C=C/c2cc(/C=C/c3ccc(OCCCO[N+](=O)[O-])c(OC)c3)n(-c3ccccc3F)n2)ccc1OCCCO[N+](=O)[O-]", "> 50 µM"],
  ["COc1cc(/C=C/c2cc(/C=C/c3ccc(OCCCCO[N+](=O)[O-])c(OC)c3)n(-c3ccccc3F)n2)ccc1OCCCCO[N+](=O)[O-]", "> 50 µM"],
  ["COc1cc(/C=C/c2cc(/C=C/c3ccc(OCCO[N+](=O)[O-])c(OC)c3)n(-c3ccccc3F)n2)ccc1OCCO[N+](=O)[O-]", "> 50 µM"],
  ["COc1cc(/C=C/C(=O)C(=Cc2ccco2)C(=O)/C=C/c2ccc(OCCCO[N+](=O)[O-])c(OC)c2)ccc1OCCCO[N+](=O)[O-]", "3.66 µM"],
  ["COc1cc(/C=C/c2cc(/C=C/c3ccc(OCCO[N+](=O)[O-])c(OC)c3)n(-c3ccccc3)n2)ccc1OCCO[N+](=O)[O-]", "> 50 µM"],
  ["COc1cc(/C=C/c2cc(/C=C/c3ccc(OCCCCO[N+](=O)[O-])c(OC)c3)n(-c3ccccc3)n2)ccc1OCCCCO[N+](=O)[O-]", "> 50 µM"],
  ["COc1cc(/C=C/c2cc(/C=C/c3ccc(OCCCO[N+](=O)[O-])c(OC)c3)n(Cc3ccccc3)n2)ccc1OCCCO[N+](=O)[O-]", "> 50 µM"],
  ["COc1cc(/C=C/C(=O)C(=Cc2cccs2)C(=O)/C=C/c2ccc(OCCCO[N+](=O)[O-])c(OC)c2)ccc1OCCCO[N+](=O)[O-]", "2.4 µM"],
  ["COc1cc(/C=C/c2cc(/C=C/c3ccc(OCCCO[N+](=O)[O-])c(OC)c3)n(-c3ccccc3)n2)ccc1OCCCO[N+](=O)[O-]", "> 50 µM"],
  ["COc1cc(/C=C/c2cc(/C=C/c3ccc(OCCCCO[N+](=O)[O-])c(OC)c3)n(-c3ccc(C(F)(F)F)cc3)n2)ccc1OCCCCO[N+](=O)[O-]", "> 50 µM"],
  ["COc1cc(/C=C/c2cc(/C=C/c3ccc(OCCCO[N+](=O)[O-])c(OC)c3)n(-c3ccc(F)cc3)n2)ccc1OCCCO[N+](=O)[O-]", "> 50 µM"],
  ["COc1cc(/C=C/c2cc(/C=C/c3ccc(OCCCCO[N+](=O)[O-])c(OC)c3)n(-c3ccccn3)n2)ccc1OCCCCO[N+](=O)[O-]", "> 50 µM"]
]}
